- experiment notes: viability loss with induced miR-34 in A549 – imaging, A549 dox-inducible miR-34, nuclei and caspase counts, primary screen (AID 1347080)
- cond: A549 miR-34 inducible, Hoechst nuclei count, 48 h; measured here: total cells without miR-34 induction
Listed molecules paired with reported cell count
When you answer, write just the number.

* C#CCNC1CCc2ccccc21 (stereo not given) | 7960
* C[C@]12CCC(=O)C=C1CC[C@@H]1[C@H]2C(O)C[C@@]2(C)[C@H]1CC[C@@]2(O)C(=O)CO (stereo not given in full) | 5670

q: Endpoint output: cell count of C=C[C@]1(C)CC(OC(=O)CSC(C)(C)CNC(=O)C(N)C(C)C)[C@@]2(C)C(C)CC[C@]3(CCC(=O)[C@H]32)C(C)C1O (stereo not given in full) . Value?
a: 7470

q: Further, for CN1CCN(Cc2cccc(Oc3ccccc3)c2)CC1CCO (stereo not given) ?
a: 9620

q: Further, for Cc1cccc(C)c1OCC(N)C(C)C (stereo not given) ?
a: 10300

----------
- experiment notes: 75Q-TubH aggregate inhibition, S. cerevisiae, yeast (AID 1616)
- cond: S. cerevisiae 75Q-TubH polyglutamine aggregation suppression; stronger effect = higher value
Listed compounds paired with reported aggregation suppression score

Solved cases below.
- NC[C@@H]1O[C@H](O[C@@H]2[C@@H](CO)OC(O[C@@H]3[C@@H](O)[C@H](N)C[C@H](N)[C@H]3OC3O[C@H](CO)[C@@H](O)[C@H](O)[C@H]3N)[C@@H]2O)[C@H](N)[C@@H](O)[C@@H]1O (some centres undefined): 1.65
- COC(=O)/C(=C1\OC(=O)C(c2ccccc2)C1=O)c1ccccc1 (centres undefined): 0.0212
- CO/N=C(\C(=O)NC1C(=O)N2C(C(=O)O)=C(CSc3nc(=O)c(O)nn3C)CS[C@H]12)c1csc(N)n1 (some centres undefined): 1.05

q: Endpoint output: aggregation suppression score of CCC(=O)OC1CCC2C3CCc4cc(O)ccc4C3CCC12C (centres undefined) . Value?
a: 0.421

----------
- experiment notes: viability loss with induced miR-34 in A549 – imaging, A549 dox-inducible miR-34, nuclei and caspase counts, primary screen (AID 1347080)
- cond: A549 miR-34 inducible, Hoechst nuclei count, 48 h; measured here: total cells with miR-34 induction; stronger effect = lower value
readout kind: cell count
When you answer, write just the number.

Solved cases below.
- CCCCC(F)(F)C(=O)CCC1C(O)CC(=O)C1CCCCCCC(=O)O (stereo unspecified): 8100
- CCC(=O)O[C@]1(C(=O)SCF)C(C)CC2C3CC(F)C4=CC(=O)C=C[C@]4(C)[C@@]3(F)C(O)C[C@@]21C (stereo partly specified): 6980
- C=CC1=C(C(=O)O)N2C(=O)C(NC(=O)C(=NO)c3csc(N)n3)C2SC1 (stereo unspecified): 9440

q: Endpoint output: cell count of c1ccc2c(c1)CC(N1CCN(c3cccc4c3OCCO4)CC1)C2 . Value?
a: 8000

q: Further, for Cc1ccc2c(c1)C(N1CCN(C)CC1)=Nc1cccnc1N2 ?
a: 8670

----------
Listed compounds paired with reported cell count
- experiment notes: viability loss with induced miR-34 in A549 – imaging, A549 dox-inducible miR-34, nuclei and caspase counts, primary screen (AID 1347080)
- cond: A549 miR-34 inducible, Hoechst nuclei count, 48 h; measured here: total cells without miR-34 induction
When you answer, write just the number.

Solved cases below.
- CCN1C(=CC(C)=O)Sc2ccc(OC)cc21: 7700
- CCCCCCCC/C=C\CCCCCCCCOC[C@H](COP(=O)([O-])OCC[N+](C)(C)C)OC(C)=O: 6700
- CC(=O)O[C@H]1CC2(C)[C@@H](C[C@@H](O)[C@H]3[C@@]4(C)CC[C@@H](O)[C@@H](C)[C@@H]4CC[C@@]32C)C1=C(CCC=C(C)C)C(=O)O (stereo not given in full): 9920
- COc1ncccc1-c1cnn(CC(=O)Nc2cc(-c3ccccn3)nn2C)c1: 9900

Next compound, please.
q: Endpoint output: cell count of Nc1nc(Cl)nc2c1ncn2C1OC(CO)C(O)C1O (stereo not given) . Value?
a: 1680

----------
- experiment notes: viability loss with induced miR-34 in A549 – imaging, A549 dox-inducible miR-34, nuclei and caspase counts, primary screen (AID 1347080)
- cond: A549 miR-34 inducible, Hoechst nuclei count, 48 h; stronger effect = lower value; cell number ratio, induced over uninduced
Active and inactive are the calls of the source.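 Rule for the calls: active = compounds whose cell count with miR-34 switched on is under 0.7 times the count with it off; inactive = the rest.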
readout kind: fold change

Solved cases below.
- Cc1ccc(NC(=O)c2ccc3nccnc3c2)cn1: 0.855 (inactive)
- COc1cc(CC2COC(=O)C2Cc2ccc(O)c(OC)c2)ccc1O (stereo not given): 0.888 (inactive)
- CC(NCc1ccc(OCc2cccc(F)c2)cc1)C(N)=O (stereo not given): 0.935 (inactive)
- CN1CCc2nc(C(=O)NC3CC(C(=O)N(C)C)CCC3NC(=O)C(=O)Nc3ccc(Cl)cn3)sc2C1 (stereo not given): 0.965 (inactive)
- C=C1C[C@@]23CC[C@H]4[C@@](C)(CCC[C@@]4(C)C(=O)O)[C@@H]2CC[C@]1(O)C3: 0.931 (inactive)

q: Endpoint output: fold change of CC=C1C2C=C(C)C[C@]1(N)c1ccc(=O)[nH]c1C2 . Value?
a: 0.883 (inactive)

q: Further, for CC(=O)OCC(=O)[C@]12N=C(C)O[C@@H]1C[C@H]1[C@@H]3CCC4=CC(=O)C=C[C@]4(C)[C@@H]3C(O)C[C@@]12C (stereo not given in full) ?
a: 0.954 (inactive)

q: Further, for CN(C)c1ccc(O)c2c1CC1CC3[C@@H](N(C)C)C(=O)C(C(N)=O)=C(O)[C@]3(O)C(=O)C1=C2O (stereo not given in full) ?
a: 0.679 (active)

q: Further, for NS(=O)(=O)c1ccc(CCC(=O)O)cc1 ?
a: 0.881 (inactive)

q: Further, for COc1ccc(NC(=O)/C=C/c2ccc(Cl)cc2)cc1 ?
a: 1.13 (inactive)

----------
Listed molecules paired with reported cell count
- experiment notes: viability loss with induced miR-34 in A549 – imaging, A549 dox-inducible miR-34, nuclei and caspase counts, primary screen (AID 1347080)
- cond: A549 miR-34 inducible, Hoechst nuclei count, 48 h; measured here: total cells with miR-34 induction; stronger effect = lower value
When you answer, write just the number.

Solved cases below.
• O=C(O)CCC(=O)Nc1ccc(Br)cn1 = 8810
• C=C1/C(=C/C=C2/CCC[C@]3(C)[C@@H]([C@H](C)CCCC(C)C)CC[C@@H]23)C[C@@H](O)C[C@@H]1O = 8220
• CCCCCCCCCCCCCCCCCCN(CCCCCCCCCCCCCCCCCC)CCCN(CCO)CCO = 10100

q: Endpoint output: cell count of COc1cc2ncnc(Nc3ccc(F)c(Cl)c3)c2cc1NC(=O)C=CCN1CCCCC1 . Value?
a: 3310

q: Further, for O=C(Nc1cccc(C(=O)Nc2ccc(S(=O)(=O)O)c3cc(S(=O)(=O)O)cc(S(=O)(=O)O)c23)c1)Nc1cccc(C(=O)Nc2ccc(S(=O)(=O)O)c3cc(S(=O)(=O)O)cc(S(=O)(=O)O)c23)c1 ?
a: 9650

q: Further, for CN(C)CCC=C1c2ccccc2COc2ccccc21 ?
a: 8300

q: Further, for CC(=O)OC1CC2CCC3C(CC[C@@]4(C)C3CC([N+]3(C)CCCCC3)C4OC(C)=O)[C@@]2(C)CC1N1CCCCC1 (stereo not given in full) ?
a: 9160

----------
- experiment notes: growth inhibition, single agent or in combination, cell-based, chromothripsis tumors, cisplatin or BGB combos (AID 1671449);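 also: cells exposed for 96 hours; 0% = vehicle DMSO and 100% = killing by high DMSO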
- cond: LFS_MB_P medulloblastoma cells, measured here: combination with BGB IC40, at 0.005 µM
readout kind: inhibition (%)
Only the number, expressed in %, is required.

• Cc1cc(C=CC#N)cc(C)c1Nc1ccnc(Nc2ccc(C#N)cc2)n1 = -21.8
• O=c1cc(-c2ccc(O)cc2)[nH]c(=S)[nH]1 = -7.24
• C[C@@H]1O[C@@H](O[C@@H]2[C@@H](O)[C@H](OCCc3ccc(O)c(O)c3)O[C@H](CO)[C@H]2OC(=O)C=Cc2ccc(O)c(O)c2)[C@H](O)[C@H](O)[C@H]1O = -47.4
• C[C@H](NC(=O)c1ccccc1N=Cc1c(O)ccc2ccccc12)c1ccccc1 = -29.4
• CCC(Sc1nnc2c3ccccc3n(CC)c2n1)C(=O)Nc1ccccc1OC (stereo not drawn) = 87.7

Next compound, please.
q: Endpoint output: inhibition of Cc1cn(C2C=CC(CO)O2)c(=O)[nH]c1=O (stereo not drawn) . Value?
a: -35

----------
- experiment notes: galactose survival enhancers in mitochondrial complex I cybrids – cell-based, galactose medium, ATP luminescence, primary screen (AID 1645843);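 also: positive z means more ATP and so rescue of galactose-driven cybrid death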
- cond: complex I mutant cybrid cells, 72 h, stronger effect = higher value
Listed compounds paired with reported z-score
When you answer, write just the number.

q: Endpoint output: z-score of COc1ccc2nc(Cn3cnc4sc(C)cc4c3=O)[nH]c2c1 . Value?
a: 0.395
